Each recorded value in this set is attributed to patent US20260070917A1.

molecular target: CCNE1 (Homo sapiens, UniProt P24864); construct: host or cells: HEK293-CCNE1-Hibit; test: HiBit Assay Protocol for CCNE1 (HIBIT protein quantification, degradation); format: cell-based; conditions: HEK293-CCNE1-Hibit cells, compound treatment for 6 hours
Sequence (P24864 whole entry): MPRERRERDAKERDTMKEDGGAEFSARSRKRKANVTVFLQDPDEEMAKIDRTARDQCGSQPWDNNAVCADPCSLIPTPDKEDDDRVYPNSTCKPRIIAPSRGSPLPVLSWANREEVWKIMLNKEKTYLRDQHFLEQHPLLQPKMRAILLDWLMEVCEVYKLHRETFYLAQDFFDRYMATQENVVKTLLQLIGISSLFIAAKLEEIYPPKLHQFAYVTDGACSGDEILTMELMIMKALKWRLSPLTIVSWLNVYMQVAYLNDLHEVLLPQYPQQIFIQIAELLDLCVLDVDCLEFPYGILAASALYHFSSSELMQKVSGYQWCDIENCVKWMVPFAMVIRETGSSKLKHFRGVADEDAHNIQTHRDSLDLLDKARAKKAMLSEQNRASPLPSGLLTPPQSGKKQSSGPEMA
Use Condition met when the recorded CCNE1 HIBIT Protein Quantification Maximum is no lower than 40%; use Condition not met when it is lower.

[in] Would you say CC1CCCC1N1C(=O)C2(CC2)c2cnc(NC3CCN(S(=O)(=O)N4CCCN(C(=O)CCCCCc5ccc6c(c5)n(C)c(=O)n6C5CCC(=O)NC5=O)CC4)CC3)nc21 (stereo not shown) shows CCNE1 HIBIT Protein Quantification Maximum at minimum 40%?
[out] Condition not met

[in] Can CC1CCCC1N1C(=O)C2(CC2)c2cnc(NC3CCN(S(=O)(=O)N4CC5(CCN(C(=O)CCc6ccc7c(c6)n(C)c(=O)n7C6CCC(=O)NC6=O)CC5)C4)CC3)nc21 (stereo not shown) be said to have CCNE1 HIBIT Protein Quantification Maximum at or above 40%?
[out] Condition not met

[in] # check: CCNE1 HIBIT Protein Quantification Maximum of O=C1CCC(N2Cc3cc(C4CN(Cc5cccc(S(=O)(=O)N6CCC(Nc7ncc8c(n7)N([C@@H]7CCC[C@@H](O)C7)C(=O)C87CC7)CC6)c5)C4)ccc3C2=O)C(=O)N1 (stereo partly shown) is greater than or equal to 40%
[out] Condition met

[in] Dear colleague, could you confirm whether `C[C@@H]1CN(S(=O)(=O)c2cccc(CN3CCC(c4ccc5c(N6CCC(=O)NC6=O)nn(C)c5c4)CC3)c2)CC[C@@H]1Nc1ncc2c(n1)N([C@@H]1CCC[C@@H](O)C1)C(=O)C21CC1` has CCNE1 HIBIT Protein Quantification Maximum at or above 40%?
[out] Condition not met

[in] Determine whether measured CCNE1 HIBIT Protein Quantification Maximum meets or exceeds 40% for CC1CCCC1N1C(=O)C2(CC2)c2cnc(NC3CCN(S(=O)(=O)N4CCC5(CCCN5C(=O)CCCCCc5cccc6c5n(C)c(=O)n6C5CCC(=O)NC5=O)C4)CC3)nc21 (stereo not shown)
[out] Condition met

[in] Tell me whether CCNE1 HIBIT Protein Quantification Maximum is at least 40% here: CC1CCCC1N1C(=O)C2(CC2)c2cnc(NC3CCN(S(=O)(=O)N4CCCC45CCN(C(=O)CCCc4cccc6c4n(C)c(=O)n6C4CCC(=O)NC4=O)C5)CC3)nc21 (stereo not shown)
[out] Condition not met

[in] Check if CCNE1 HIBIT Protein Quantification Maximum >= 40% (inclusive). Item: O=C1CCC(N2Cc3cc(N4CCC(CN5CCN(c6cccc(S(=O)(=O)c7ccc(Nc8ncc9c(n8)N([C@@H]8CCC[C@@H](O)C8)C(=O)C98CC8)cc7)c6)CC5)CC4)ccc3C2=O)C(=O)N1 (stereo partly shown)
[out] Condition met

[in] Determine whether this compound has CCNE1 HIBIT Protein Quantification Maximum no lower than 40%: CC1CN(Cc2cccc(S(=O)(=O)N3CCC(Nc4ncc5c(n4)N([C@@H]4CCC[C@@H](O)C4)C(=O)C54CC4)CC3)c2)CCN1c1ccc2c(N3CCC(=O)NC3=O)nn(C)c2c1 (stereo partly shown)
[out] Condition not met

[in] Say whether CC1CCCC1N1C(=O)C2(CC2)c2cnc(NC3CCN(S(=O)(=O)N4CC5(CCCN(C(=O)CCCCCCCCCc6ccc7c(c6)n(C)c(=O)n7C6CCC(=O)NC6=O)C5)C4)CC3)nc21 (stereo not shown) shows CCNE1 HIBIT Protein Quantification Maximum of 40% or more.
[out] Condition not met
